These data points were gathered from paper PMC7271024.

test system: P. aeruginosa PAO1; experiment: MIC, microdilution broth method; format: cell-based, Pseudomonas aeruginosa; conditions: MIC –PMBN vs +PMBN

[
  {
    "MOLECULE": "O=C(O)c1cn(Cc2cccc3ccsc23)c2cc(N3CCNCC3)c(F)cc2c1=O [Compound 6g]",
    "potentiation of MIC by PMBN": "over 8 fold"
  },
  {
    "MOLECULE": "O=C(O)c1cn(C2CC2)c2cc(N3CCNCC3)c(F)cc2c1=O [Compound 6a, ciprofloxacin, reference compound]",
    "potentiation of MIC by PMBN": "4–16 fold"
  },
  {
    "MOLECULE": "CCn1cc(C(=O)O)c(=O)c2cc(F)c(N3CCNCC3)cc21 [Compound 6b, norfloxacin, reference compound]",
    "potentiation of MIC by PMBN": "4–16 fold"
  },
  {
    "MOLECULE": "O=C(O)c1cn(Cc2cccc3ccoc23)c2cc(N3CCNCC3)c(F)cc2c1=O [Compound 6f]",
    "potentiation of MIC by PMBN": "over 8 fold"
  }
]

###

system: A. baumannii ATCC 17978; assay: MIC, microdilution broth method; assay type: cell-based, Acinetobacter baumannii; conditions: MIC –PMBN vs +PMBN

[
  {
    "COMPOUND_STRUCTURE": "O=C(O)c1cn(-c2cccc3ccsc23)c2cc(N3CCNCC3)c(F)cc2c1=O",
    "potentiation of MIC by PMBN [fold]": 2
  },
  {
    "COMPOUND_STRUCTURE": "O=C(O)c1cn(-c2cccc3ccoc23)c2cc(N3CCNCC3)c(F)cc2c1=O",
    "potentiation of MIC by PMBN [fold]": 2
  }
]
